Entries and their pIC50 values follow.
# experimental-target: human recombinant H-PGDS (Homo sapiens, UniProt O60760)
# Sequence (O60760 whole entry): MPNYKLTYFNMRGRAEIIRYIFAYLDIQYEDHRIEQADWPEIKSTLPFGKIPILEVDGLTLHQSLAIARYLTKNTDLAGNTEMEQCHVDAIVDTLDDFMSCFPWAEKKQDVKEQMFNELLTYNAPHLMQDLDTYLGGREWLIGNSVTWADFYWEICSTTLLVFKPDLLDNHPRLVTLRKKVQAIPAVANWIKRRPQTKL
# assay-overview: Fluorescence intensity h-PGDS TBA enzyme assay
# Type: biochemical
# applied-conditions: Examples up to 622 (and 3a, 3b)
Worth noting: pIC50 values are minus log10 of concentrations stated in mol/L.

Some solved entries appear below for comparison.
compound	experimental-target	pIC50
O=C(NC1CCN(Cc2nc3ccccn3c2Br)CC1)c1ccc(-c2cccc(F)c2)nc1 [Example 414]	human recombinant H-PGDS (Homo sapiens, UniProt O60760)	9.46
CCCCCN1CCC(NC(=O)c2ccc(-c3cccc(F)c3)nc2)CC1 [Example 325]	human recombinant H-PGDS (Homo sapiens, UniProt O60760)	8.40
Cn1nnnc1N1CCC(NC(=O)c2ccc(-c3cccc(F)c3)nc2)CC1 [Example 51]	human recombinant H-PGDS (Homo sapiens, UniProt O60760)	9.58
COc1ccc(CN2CCC(NC(=O)c3ccc(-c4cccc(F)c4)nc3)CC2)cc1Br [Example 245]	human recombinant H-PGDS (Homo sapiens, UniProt O60760)	8.92

Q: # query: pIC50 of entry O=C(N[C@@H]1CN(c2nnnn2-c2ccccc2)C[C@H]1O)c1ccc(-c2cccc(F)c2)nc1 (relative stereo) [Example 619]
Result: 8.92

Q: # input compound: CCn1cc(CN2CCC(NC(=O)c3ccc(-c4cccc(F)c4)nc3)CC2)cn1 [Example 185] ; wanted: its pIC50
Result: 7.96

Q: Query (compound): CC(C)c1cc(CN2CCC(NC(=O)c3ccc(-c4cccc(F)c4)nc3)CC2)n[nH]1 [Example 366] ; field requested: pIC50
Result: 8.62

Q: Consider the compound COc1ccccc1OCC(C)N1CCC(NC(=O)c2ccc(-c3cccc(F)c3)nc2)CC1 (centres unmarked) [Example 553] and give its measured pIC50.
Result: 8.75

* * *

# experimental-target: human recombinant H-PGDS (Homo sapiens, UniProt O60760)
# assay-overview: Fluorescence intensity h-PGDS TBA enzyme assay
# Assay type: biochemical
# applied-conditions: Examples up to 622 (and 3a, 3b)
Listed below: IC50 values for each entry.
Quick reminder: number only, in nM, skip the unit.

compound	experimental-target	IC50 / nM
CC(C)(C)OC(=O)N1C[C@@H](O)[C@H](NC(=O)c2ccc(-c3cccc(F)c3)nc2)C1 (relative stereo) [Example 610]	human recombinant H-PGDS (Homo sapiens, UniProt O60760)	6.92
O=C(NC1CCN(Cc2cnc3ccccc3n2)CC1)c1ccc(-c2cccc(F)c2)nc1 [Example 263]	human recombinant H-PGDS (Homo sapiens, UniProt O60760)	1.16
CCOC(=O)c1cccc(-n2nnnc2N2CCC(NC(=O)c3ccc(-c4cccc(F)c4)nc3)CC2)c1 [Example 98]	human recombinant H-PGDS (Homo sapiens, UniProt O60760)	3.7
CCC(c1ccc(OC)c(OC)c1)N1CCC(NC(=O)c2ccc(-c3cccc(F)c3)nc2)CC1 (centres unmarked) [Example 541]	human recombinant H-PGDS (Homo sapiens, UniProt O60760)	0.951
O=C(NC1CCN(Cc2ccc(OC(F)F)c(OC3CC3)c2)CC1)c1ccc(-c2cccc(F)c2)nc1 [Example 486]	human recombinant H-PGDS (Homo sapiens, UniProt O60760)	2.32
COc1cc(CN2CCC(NC(=O)c3ccc(-c4cccc(F)c4)nc3)CC2)ccc1OCC(F)F [Example 405]	human recombinant H-PGDS (Homo sapiens, UniProt O60760)	0.483
CCC(C)CCN1CCC(NC(=O)c2ccc(-c3cccc(F)c3)nc2)CC1 (centres unmarked) [Example 360]	human recombinant H-PGDS (Homo sapiens, UniProt O60760)	2.76

Next, consider the following compound.
Q: Item COc1cccc(-c2ccc(C(=O)NC3CCN(Cc4ccccn4)CC3)cn2)c1 [Example 15] with human recombinant H-PGDS (Homo sapiens, UniProt O60760) - IC50?
Result: 2.91

* * *

# experimental-target: human recombinant H-PGDS (Homo sapiens, UniProt O60760)
# assay-overview: Fluorescence intensity h-PGDS TBA enzyme assay
# Format: biochemical
# applied-conditions: Examples up to 622 (and 3a, 3b)
Measured log10 of IC50 values are reported for all entries that follow.
Field: value | Transform: log10 | Quantity: IC50 | Unit: nM

molecule	experimental-target	log10 of IC50
CCN(CC)C(=O)c1ccc(N2CCC(NC(=O)c3ccc(-c4cccc(F)c4)nc3)CC2)nc1	human recombinant H-PGDS (Homo sapiens, UniProt O60760)	0.15
Cc1ccn2c(CN3CCC(NC(=O)c4ccc(-c5cccc(F)c5)nc4)CC3)c(C)nc2c1	human recombinant H-PGDS (Homo sapiens, UniProt O60760)	0.10
CC1(CN2CCC(NC(=O)c3ccc(-c4cccc(F)c4)nc3)CC2)CC1	human recombinant H-PGDS (Homo sapiens, UniProt O60760)	-0.38
N#CC1(c2ccc(CN3CCC(NC(=O)c4ccc(-c5cccc(F)c5)nc4)CC3)cc2)CC=CC1	human recombinant H-PGDS (Homo sapiens, UniProt O60760)	1.07
O=C(NC1CCN(Cc2cc(F)cc(F)c2F)CC1)c1ccc(-c2cccc(F)c2)nc1	human recombinant H-PGDS (Homo sapiens, UniProt O60760)	0.43

Q: GET /values?readout=log10 of IC50&item= O=C(NC1CCN(Cc2nc3c(s2)CCCC3)CC1)c1ccc(-c2cccc(F)c2)nc1
Result: 0.07

Q: Item CC(CO)N(C)C(=O)c1ccc(N2CCC(NC(=O)c3ccc(-c4cccc(F)c4)nc3)CC2)nc1 (centres unmarked) has what recorded log10 of IC50?
Result: -0.06

Q: Any idea what log10 of IC50 was measured for Cn1ncc(CN2CCC(NC(=O)c3ccc(-c4cccc(F)c4)nc3)CC2)c1-c1ccccc1 ?
Result: -0.52

* * *

# experimental-target: human recombinant H-PGDS (Homo sapiens, UniProt O60760)
# assay-overview: Fluorescence intensity h-PGDS TBA enzyme assay
# Assay type: biochemical
# applied-conditions: Examples up to 622 (and 3a, 3b)
outcome-measure: IC50 (nM)
// return numeric value only (unit: nM, not printed)

Use the examples below as a reference point.
molecule	IC50 / nM
O=C(NC1CCN(Cc2nc3cccc4c3n2CC=C4)CC1)c1ccc(-c2cccc(F)c2)nc1	2.05
Cc1nc2ccc(Cl)cn2c1CN1CCC(NC(=O)c2ccc(-c3cccc(F)c3)nc2)CC1	4.24
Cc1cccc(-c2ccc(C(=O)NC3CCN(CC(F)(F)F)CC3)cn2)c1	0.898

Q: Query: IC50; subject: O=C(NC1CCN(C2CCC(=O)N(CC3CCC3)CC2)CC1)c1ccc(-c2cccc(F)c2)nc1 (stereo not shown)
Result: 1.68

Q: Returns the measured IC50 for the input molecule. Input: O=C(NC1CCN(Cc2ccc(CF)nc2)CC1)c1ccc(-c2cccc(F)c2)nc1
Result: 0.935

Q: Reported IC50, molecule Cc1cc(C2CCCN2c2ccnc(N3CCC(NC(=O)c4ccc(-c5cccc(F)c5)nc4)CC3)n2)no1 (stereo not shown) : ____
Result: 2.92

Q: Query (molecule): CC(C)(CNC(=O)OC(C)(C)C)CN1CCC(NC(=O)c2ccc(-c3cccc(F)c3)nc2)CC1 ; field requested: IC50
Result: 0.578

Q: // returns reported IC50 for input O=C(NC1CCN(c2nccc(Nc3cc[nH]n3)n2)CC1)c1ccc(-c2cccc(F)c2)nc1
Result: 0.687

Q: // lookup IC50 for CC(C)(C)OCCN1CCC(NC(=O)c2ccc(-c3cccc(F)c3)nc2)CC1
Result: 5.01

Q: Item O=C(NC1CCN(c2cc(OCc3ccccn3)ncn2)CC1)c1ccc(-c2cccc(F)c2)nc1 has what recorded IC50?
Result: 1.03

Q: # IC50 lookup, item COc1ccc2[nH]cc(CN3CCC(NC(=O)c4ccc(-c5cccc(F)c5)nc4)CC3)c2c1
Result: 1.42

Q: Recorded IC50 for Cc1ccccc1-c1ncc(CN2CCC(NC(=O)c3ccc(-c4cccc(F)c4)nc3)CC2)cn1 , please?
Result: 1.51

Q: Recorded IC50 of O=C(NC1CCN(c2ncnc3ccc(Cl)cc23)CC1)c1ccc(-c2cccc(F)c2)nc1 , please.
Result: 1.04

Q: Fill in: IC50 of O=C(NC1CCN(c2ncccc2C(=O)NCc2ccccc2)CC1)c1ccc(-c2cccc(F)c2)nc1 is ___
Result: 3.35

Q: Look up IC50: CCCC(=O)N1CCC(NC(=O)c2ccc(-c3cccc(C)c3)nc2)CC1
Result: 2.64

Q: Need IC50 of COc1cc(CN2CCC(NC(=O)c3ccc(-c4cccc(F)c4)nc3)CC2)c(F)cc1Cl , thanks.
Result: 0.257

* * *

Recorded pIC50, one value per entry.
# experimental-target: human recombinant H-PGDS (Homo sapiens, UniProt O60760)
# assay-overview: Fluorescence intensity h-PGDS TBA enzyme assay
# Type: biochemical
# applied-conditions: Examples up to 622 (and 3a, 3b)
Keep it numeric: pIC50 is minus log10 of the concentration in mol/L.

molecule	experimental-target	pIC50
CC(=O)N1CCC(NC(=O)c2ccc(-c3cccc(F)c3)nc2)C(c2ccc(F)cc2)C1 (centres unmarked)	human recombinant H-PGDS (Homo sapiens, UniProt O60760)	7.12
COc1cc(N2CCC(NC(=O)c3ccc(-c4cccc(F)c4)nc3)CC2)ncn1	human recombinant H-PGDS (Homo sapiens, UniProt O60760)	9.21

Q: Form field: reported pIC50 of O=C(NC1CCN(c2nccc(-c3ccccc3CCO)n2)CC1)c1ccc(-c2cccc(F)c2)nc1
Result: 8.43

Q: For the molecule O=C(NC1CCN(c2ncc3ccc(F)cc3n2)CC1)c1ccc(-c2cccc(F)c2)nc1 , what pIC50 is on record?
Result: 8.05

Q: Which pIC50 is reported for this molecule? CCc1cnc(CC)c(N2CCC(NC(=O)c3ccc(-c4cccc(F)c4)nc3)CC2)n1
Result: 7.63

Q: Would you mind telling me what pIC50 value was observed for Cc1nn(C(C)(C)C)c(C)c1CN1CCC(NC(=O)c2ccc(-c3cccc(F)c3)nc2)CC1 ?
Result: 8.86
